- TEST METHOD NOTES: Mitochondrial toxicity assay, glucose vs galactose
- Format: cell-based
- EXPERIMENTAL CONDITIONS: human, HepG2 cells, HepG2; Glucose; Conc. (μM) 1.00E-04; read-out: Mean % viability
QUANTITY: viability at 24 h, 100 µM (%)

- O=C(Nc1nnc(-c2ccc(F)cc2)o1)N1CCc2ccccc2C1 [MBX-4132]: 81.9

---

- TEST METHOD NOTES: Multiplexed cytotoxicity assay (nuclei, ROS, TMRE)
- Assay type: cell-based, human
- EXPERIMENTAL CONDITIONS: human, human primary hepatocytes, 1.00E+00 μM; read-out: Mean MMP inhibition (fold induction)
QUANTITY: fold induction at 24 h, 1 μM

- O=C(Nc1nnc(-c2ccc(F)cc2)o1)N1CCc2ccccc2C1 [MBX-4132]: 0.9

---

- TEST METHOD NOTES: Pharmacokinetic analyses in mice (PO suspension, IV, SC)
- Format: in vivo, mouse
- EXPERIMENTAL CONDITIONS: female, CD-1, mouse, in vivo, po, 10 mg/kg, PO (10 mg/kg susp.), 0.5 hrs, mean of 3 animals; read-out: MBX 4132 Concentrations in Mouse Plasma, Mean
QUANTITY: concentration at 0.5 h (ng/mL)

- O=C(Nc1nnc(-c2ccc(F)cc2)o1)N1CCc2ccccc2C1: 14000

---

- TEST METHOD NOTES: Multiplexed cytotoxicity assay (nuclei, ROS, TMRE)
- Assay type: cell-based, human
- EXPERIMENTAL CONDITIONS: human, human primary hepatocytes, 3.17E-01 μM; read-out: Mean ROS (fold induction)
QUANTITY: fold induction at 24 h, 0.317 μM

- O=C(Nc1nnc(-c2ccc(F)cc2)o1)N1CCc2ccccc2C1: 1.2

---

- TEST METHOD NOTES: Serum protein binding, murine
- Assay type: in vitro ADME, mouse
- EXPERIMENTAL CONDITIONS: mouse, serum, Average Value; Eurofins; read-out: Serum binding (% bound) Murine (converted)
QUANTITY: fraction unbound

• O=C(Nc1nnc(-c2ccc(F)cc2)o1)N1CCc2ccccc2C1 [MBX-4132] = 0.023

---

- TEST METHOD NOTES: in vitro
- EXPERIMENTAL CONDITIONS: mouse, serum, serum stability, % remaining after 1 h, murine serum; 1 h incubation at 37 °C
QUANTITY: remaining at 1 h

- O=C(Nc1nnc(-c2ccc(F)cc2)o1)N1CCc2ccccc2C1: > 99.8%

---

- TEST METHOD NOTES: Pharmacokinetic analyses in mice (PO suspension, IV, SC)
- Assay type: in vivo, mouse
- EXPERIMENTAL CONDITIONS: female, CD-1, mouse, in vivo, sc, 25 mg/kg, SC (25 mg/kg), 8 hrs, individual animals; read-out: MBX 4132 Concentrations in Mouse Plasma
QUANTITY: concentration at 8 h (ng/mL)

- O=C(Nc1nnc(-c2ccc(F)cc2)o1)N1CCc2ccccc2C1: 3420

---

- TEST METHOD NOTES: Mitochondrial toxicity assay, glucose vs galactose
- Assay type: cell-based
- EXPERIMENTAL CONDITIONS: human, HepG2 cells, HepG2; Glucose; Conc. (μM) 1.00E-04; replicates; read-out: % viability
QUANTITY: viability at 24 h, 100 µM (%)

* O=C(Nc1nnc(-c2ccc(F)cc2)o1)N1CCc2ccccc2C1 | 78.3

Cited source: paper PMC7979765
